Quick reference for inhibition among some compounds
# Tested on: Rat fibroblasts (CREF)
# test description: Peg3 promoter luciferase inhibitors, potency, dose response, cell-based, HeLa, CREF/GAPDH counter-screen panel (AID 624167)
# assay context: CREF/GAPDH counter-screens; run 2, dose range 1, at 100 µM (top of the series)

compound: Cc1ccc(-c2nnc(SCC(=O)Nc3ccccc3F)o2)cc1
inhibition, %: 97.2

compound: COC(=O)c1c(N)sc(C(=O)NCCc2ccccc2)c1C
inhibition, %: 92.9

compound: CCC(c1ccc(O)c(O)c1)C(CC)c1ccc(O)c(O)c1 (stereo unspecified)
inhibition, %: 97.1

compound: COc1ccccc1Nc1nc(-c2sc(NC(=O)c3ccco3)nc2C)cs1
inhibition, %: 40.3

compound: CN(C)c1ccc(/C=C2\SC(=O)N(CCc3nnc(N)s3)C2=O)cc1
inhibition, %: 82.3

compound: CN(C)c1c([N+](=O)[O-])cc(N2C(=O)C=CC2=O)cc1[N+](=O)[O-]
inhibition, %: 100

compound: Cc1ccc(NC(=S)NC(=O)c2ccc(F)cc2)cc1S(=O)(=O)Nc1ccccc1Cl
inhibition, %: 91.7

compound: CC(=O)N1CCCC(c2cc(C(=O)Nc3ccccc3)no2)C1 (stereo unspecified)
inhibition, %: 92

compound: COc1cccc2c1C(=O)c1c(O)c3c(c(O)c1C2=O)CC(O)(C(C)=NNC(=O)c1ccc(Cl)c(Cl)c1)CC3OC1CC(N)C(O)C(C)O1 (stereo unspecified)
inhibition, %: 98.6

compound: CC(C)CC1C(=O)N(Cc2cn(Cc3ccco3)nn2)CCS(=O)(=O)N1Cc1ccc(-c2ccc(F)cc2)cc1 (stereo unspecified)
inhibition, %: 100

compound: COc1ccc(CCN2C(=O)C=CC2=O)cc1OC
inhibition, %: 98.6

compound: CN(C)c1ccc(/C=C(\C#N)c2ccccn2)cc1
inhibition, %: 99

compound: NC(C(=O)O)C1ON=C(Cl)C1O (stereo unspecified)
inhibition, %: 9.67

compound: Cc1cc(C(=O)CN2C(=O)c3ccccc3S2(=O)=O)c(C)n1CC1CCCO1 (stereo unspecified)
inhibition, %: 89.4

compound: O=C(NCCc1ccccc1)c1ccc2c(c1)OCCCO2
inhibition, %: 99.5

compound: COCCn1c(C)cc(C(=O)COC(=O)c2cccc(O)c2)c1C
inhibition, %: 97.1

compound: Cc1ccc2oc(/N=C(\N)NC(=O)C(C)(C)C)nc2c1
inhibition, %: 79.9

compound: CN(C)c1ccc(Nc2nc(N)c3ccccc3n2)cc1
inhibition, %: 98

compound: COc1ccc(-n2cc(-c3ccccc3)c3c(N4CCOCC4)ncnc32)cc1
inhibition, %: 67.2

compound: O=C(O)c1cccc(COc2ccc3c(c2)CCC3)c1
inhibition, %: 89.3

compound: O=C(CCn1cnc(-c2ccccc2)c1-c1ccccc1)N/N=C/c1ccccc1O
inhibition, %: 94.1

compound: CC(C)(C)C(=O)Nc1ccc(NC(=O)c2ccco2)nc1
inhibition, %: 100

compound: CCOC(=O)Cc1csc(NC(=S)NC(=O)c2ccc(Cl)cc2)n1
inhibition, %: 86.8

compound: COc1cccc2nc3c(C(=O)NCCN(C)C)cccc3cc12
inhibition, %: 95.2

compound: Cc1ccc(-c2cc3c(nn2)-c2ccccc2C3=O)cc1
inhibition, %: 94.8

compound: CCOc1ccc(NC(=O)c2ccccn2)cc1
inhibition, %: 95.5

Recorded values, source PubChem BioAssay.
